- Tested target: Hypoxia-inducible factor prolyl hydroxylase (Homo sapiens, UniProt Q96KS0+Q9NXG6+Q9GZT9+Q9H6Z9)
- Sequence (Q96KS0 whole entry, looked up): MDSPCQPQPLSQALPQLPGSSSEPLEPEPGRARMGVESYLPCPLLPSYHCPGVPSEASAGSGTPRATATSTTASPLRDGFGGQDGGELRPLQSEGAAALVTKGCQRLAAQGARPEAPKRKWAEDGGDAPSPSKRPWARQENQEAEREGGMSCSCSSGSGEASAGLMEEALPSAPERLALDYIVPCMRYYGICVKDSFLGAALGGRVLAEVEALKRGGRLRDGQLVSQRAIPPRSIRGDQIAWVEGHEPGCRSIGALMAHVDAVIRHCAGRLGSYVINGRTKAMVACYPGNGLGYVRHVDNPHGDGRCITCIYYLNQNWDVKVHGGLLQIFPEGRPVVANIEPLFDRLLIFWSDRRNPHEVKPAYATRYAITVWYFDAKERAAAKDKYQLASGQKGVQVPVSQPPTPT
- Sequence (Q9GZT9 whole entry, looked up): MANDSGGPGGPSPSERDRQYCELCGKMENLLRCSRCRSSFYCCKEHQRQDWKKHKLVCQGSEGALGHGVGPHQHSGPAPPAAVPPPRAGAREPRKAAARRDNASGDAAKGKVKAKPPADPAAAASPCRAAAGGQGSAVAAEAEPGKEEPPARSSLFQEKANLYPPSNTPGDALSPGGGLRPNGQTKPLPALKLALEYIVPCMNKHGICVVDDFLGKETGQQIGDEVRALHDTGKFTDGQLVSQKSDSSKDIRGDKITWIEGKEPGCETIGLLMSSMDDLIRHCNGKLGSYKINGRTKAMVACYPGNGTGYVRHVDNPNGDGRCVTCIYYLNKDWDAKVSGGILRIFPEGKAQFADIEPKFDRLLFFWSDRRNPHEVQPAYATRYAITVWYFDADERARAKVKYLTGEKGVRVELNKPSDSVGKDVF
- Sequence (Q9H6Z9 whole entry, looked up): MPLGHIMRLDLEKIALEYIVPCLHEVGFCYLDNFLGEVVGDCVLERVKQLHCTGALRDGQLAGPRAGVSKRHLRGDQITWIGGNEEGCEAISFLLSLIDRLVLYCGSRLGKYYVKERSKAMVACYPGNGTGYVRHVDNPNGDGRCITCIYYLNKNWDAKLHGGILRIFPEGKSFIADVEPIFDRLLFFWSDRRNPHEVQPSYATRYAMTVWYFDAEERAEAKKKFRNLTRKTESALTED
- Sequence (Q9NXG6 whole entry, looked up): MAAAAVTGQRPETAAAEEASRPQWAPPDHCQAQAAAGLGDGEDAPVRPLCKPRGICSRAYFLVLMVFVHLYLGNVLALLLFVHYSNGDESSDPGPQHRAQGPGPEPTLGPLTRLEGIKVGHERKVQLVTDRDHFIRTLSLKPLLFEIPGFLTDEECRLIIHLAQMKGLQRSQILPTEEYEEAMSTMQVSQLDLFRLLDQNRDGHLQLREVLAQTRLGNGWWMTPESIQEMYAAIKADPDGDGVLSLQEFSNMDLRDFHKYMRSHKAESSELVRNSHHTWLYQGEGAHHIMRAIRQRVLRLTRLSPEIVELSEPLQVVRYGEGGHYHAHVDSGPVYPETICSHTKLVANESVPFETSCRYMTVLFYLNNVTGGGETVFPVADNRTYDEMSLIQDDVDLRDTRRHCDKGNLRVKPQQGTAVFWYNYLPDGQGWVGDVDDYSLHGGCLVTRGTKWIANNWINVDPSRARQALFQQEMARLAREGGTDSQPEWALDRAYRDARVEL
- Assay protocol: Inhibition of PHD (unknown origin) expressed in mouse NIH/3T3 cells harboring HRE-driven luciferase gene assessed as transactivation of HIF1alpha after 6 hrs by luciferase reporter gene assay
- Assay type: cell-based
Property: EC50 (µM)

Worked cases, EC50 given:
**Q:** Which EC50 is listed for C=C(C)[C@@H]1CC[C@]2(C(=O)NO)CC[C@]3(C)C(CC[C@@H]4[C@@]5(C)CC[C@H](O)C(C)(C)[C@@H]5CC[C@]43C)[C@@H]12 (some centres not stated) ?
**A:** 4.8

**Q:** Would you kindly repeat that for C=C(C)[C@@H]1CC[C@]2(C(=O)NO)CC[C@]3(C)C(CC[C@@H]4[C@@]5(C)Cc6cn[nH]c6C(C)(C)[C@@H]5CC[C@]43C)[C@H]12 (some centres not stated) ?
**A:** 2.4

**Q:** Can you handle C=C(C)[C@@H]1CC[C@]2(C(=O)NO)CC[C@]3(C)C(CC[C@@H]4[C@@]5(C)Cc6cnoc6C(C)(C)[C@@H]5CC[C@]43C)[C@H]12 (some centres not stated) next?
**A:** 2.6

**Q:** Also CC1(C)CCC2(C(=O)NO)CC[C@]3(C)C(=CC[C@@H]4[C@@]5(C)CC/C(=N\O)C(C)(C)[C@@H]5CC[C@]43C)[C@@H]2C1 (single isomer, unassigned) ?
**A:** 3.8

**Q:** Follow-up item: C[C@H]1[C@H](C)CC[C@]2(C(=O)NO)CC[C@]3(C)C(=CC[C@@H]4[C@@]5(C)CC[C@H](O)C(C)(C)[C@@H]5CC[C@]43C)[C@H]12
**A:** 7.7

(I) CC1(C)CC[C@]2(C(=O)NO)CC[C@]3(C)C(=CC[C@@H]4[C@@]5(C)CCC(=O)OC(C)(C)[C@@H]5CC[C@]43C)[C@@H]2C1
(II) C[C@H]1[C@H](C)CC[C@]2(C(=O)NO)CC[C@]3(C)C(=CC[C@@H]4[C@@]5(C)CC/C(=N\O)C(C)(C)[C@@H]5CC[C@]43C)[C@H]12
**Q:** For the two items I and II , which reports the higher EC50 value? Refer to your chosen entry by its label in the reply.
**A:** II
(II: 8.9 µM, I: 5.8 µM)

----------
- Tested target: Hypoxia-inducible factor prolyl hydroxylase (Homo sapiens, UniProt Q96KS0+Q9NXG6+Q9GZT9+Q9H6Z9)
- Assay protocol: Inhibition of PHD (unknown origin) expressed in mouse NIH/3T3 cells harboring HRE-driven luciferase gene assessed as transactivation of HIF1alpha after 6 hrs by luciferase reporter gene assay relative to deferoxamine
- Format: cell-based
Property: Intrinsic activity

**Q:** Data request, read-out Intrinsic activity, for C=C(C)[C@@H]1CC[C@]2(C(=O)NO)CC[C@]3(C)C(CC[C@@H]4[C@@]5(C)Cc6cn[nH]c6C(C)(C)[C@@H]5CC[C@]43C)[C@H]12 (stereo partly specified)
**A:** 0.34

**Q:** And the next one, CC1(C)CCC2(C(=O)NO)CC[C@]3(C)C(=CC[C@@H]4[C@@]5(C)CC=CC(C)(C)[C@@H]5CC[C@]43C)[C@@H]2C1 (single isomer, unassigned) ?
**A:** 0.16

**Q:** For CC1(C)CCC2(C(=O)NO)CC[C@]3(C)C(=CC[C@@H]4[C@@]5(C)CC[C@H](O)C(C)(C)[C@@H]5CC[C@]43C)[C@@H]2C1 (single isomer, unassigned) then?
**A:** 0.39

**Q:** Param item: CC1(C)CCC2(C(=O)NO)CC[C@]3(C)C(=CC[C@@H]4[C@@]5(C)CC/C(=N\O)C(C)(C)[C@@H]5CC[C@]43C)[C@@H]2C1 (single isomer, unassigned)
**A:** 0.43

**Q:** What about this molecule? CC1(C)CC[C@]2(C(=O)NO)CC[C@]3(C)C(=CC[C@@H]4[C@@]5(C)C[C@@H](O)[C@H](O)C(C)(C)[C@@H]5CC[C@]43C)[C@@H]2C1
**A:** 0.1

**Q:** # repeat for CC1(C)CC[C@]2(C(=O)NO)CC[C@]3(C)C(=CC(=O)[C@@H]4[C@@]5(C)CC[C@H](O)C(C)(C)[C@@H]5CC[C@]43C)[C@@H]2C1
**A:** 0.15

(A) C=C(C)[C@@H]1CC[C@]2(C(=O)NO)CC[C@]3(C)C(CC[C@@H]4[C@@]5(C)CC/C(=N\O)C(C)(C)[C@@H]5CC[C@]43C)[C@@H]12 (stereo partly specified)
(B) C=C(C)[C@@H]1CC[C@]2(C(=O)NO)CC[C@]3(C)C(CC[C@@H]4[C@@]5(C)Cc6cnoc6C(C)(C)[C@@H]5CC[C@]43C)[C@H]12 (stereo partly specified)
**Q:** Decide: A or B , by lowest recorded Intrinsic activity. Give the chosen item's label as your response.
**A:** A
(A: 0.31, B: 0.55)

(a) C[C@H]1[C@H](C)CC[C@]2(C(=O)NO)CC[C@]3(C)C(=CC[C@@H]4[C@@]5(C)CC[C@H](O)C(C)(C)[C@@H]5CC[C@]43C)[C@H]12
(b) C[C@H]1[C@H](C)CC[C@]2(C(=O)NO)CC[C@]3(C)C(=CC[C@@H]4[C@@]5(C)CC/C(=N\O)C(C)(C)[C@@H]5CC[C@]43C)[C@H]12
**Q:** Of the pair a and b , name the member with the lesser recorded Intrinsic activity. // caller expects the label of the chosen entry
**A:** b
(b: 0.1, a: 0.17)

----------
- Tested target: Hypoxia-inducible factor prolyl hydroxylase (Homo sapiens, UniProt Q96KS0+Q9NXG6+Q9GZT9+Q9H6Z9)
- Assay protocol: Inhibition of PHD (unknown origin) expressed in mouse NIH/3T3 cells harboring HRE-driven luciferase gene assessed as transactivation of HIF1alpha after 6 hrs by luciferase reporter gene assay
- Assay type: cell-based
Property: EC50 (µM)

**Q:** Query: EC50; subject: CC1(C)CCC2(C(=O)NO)CC[C@]3(C)C(=CC[C@@H]4[C@@]5(C)CC=CC(C)(C)[C@@H]5CC[C@]43C)[C@@H]2C1 (single isomer, unassigned)
**A:** 5

(a) CC1(C)CC[C@]2(C(=O)NO)CC[C@]3(C)C(=CC[C@@H]4[C@@]5(C)C[C@@H](O)[C@H](O)C(C)(C)[C@@H]5CC[C@]43C)[C@@H]2C1
(b) CC1(C)CC[C@]2(C(=O)NO)CC[C@]3(C)C(=CC(=O)[C@@H]4[C@@]5(C)CC[C@H](O)C(C)(C)[C@@H]5CC[C@]43C)[C@@H]2C1
(c) CC1(C)CCC2(C(=O)NO)CC[C@]3(C)C(=CC[C@@H]4[C@@]5(C)CC[C@H](O)C(C)(C)[C@@H]5CC[C@]43C)[C@@H]2C1 (single isomer, unassigned)
(d) C=C(C)[C@@H]1CC[C@]2(C(=O)NO)CC[C@]3(C)C(CC[C@@H]4[C@@]5(C)CC=CC(C)(C)[C@@H]5CC[C@]43C)[C@H]12 (stereo not given in full)
**Q:** Returns the items ordered by EC50, from maximum to minimum. Answer format: the labels, ordered as requested.
**A:** c, b, a, d
(c: 16.4 µM, b: 11.4 µM, a: 7.1 µM, d: 3.2 µM)

----------
- Tested target: Hypoxia-inducible factor prolyl hydroxylase (Homo sapiens, UniProt Q96KS0+Q9NXG6+Q9GZT9+Q9H6Z9)
- Assay protocol: Inhibition of PHD (unknown origin) expressed in mouse NIH/3T3 cells harboring HRE-driven luciferase gene assessed as transactivation of HIF1alpha after 6 hrs by luciferase reporter gene assay
- Type: cell-based
Property: EC50

# example entries with known answers
**Q:** // query EC50 value for entry CC1(C)CC[C@]2(C(=O)O)CC[C@]3(C)C(=CC[C@@H]4[C@@]5(C)CC[C@H](O)C(C)(C)[C@@H]5CC[C@]43C)[C@@H]2C1
**A:** > 50 µM

**Q:** And for C=C(C)[C@@H]1CC[C@]2(C(=O)O)CC[C@]3(C)C(CC[C@@H]4[C@@]5(C)CC[C@H](OC(=O)CC(C)(C)C(=O)O)C(C)(C)[C@@H]5CC[C@]43C)[C@H]12 (stereo not given in full) ?
**A:** > 50 µM

**Q:** Continue with CC1(C)[C@@H](O)CC[C@]2(C)[C@H]3C(=O)C=C4[C@@H]5C[C@@](C)(C(=O)O)CC[C@]5(C)CC[C@@]4(C)[C@]3(C)CC[C@@H]12
**A:** > 50 µM

**Q:** Continue with CC1(C)CC[C@]2(C(=O)O)CC[C@]3(C)C(=CC[C@@H]4[C@@]5(C)C[C@@H](O)[C@H](O)C(C)(C)[C@@H]5CC[C@]43C)[C@@H]2C1
**A:** > 50 µM

**Q:** One more molecule: CC1(C)CCC2(C(=O)O)CC[C@]3(C)C(=CC(=O)[C@@H]4[C@@]5(C)CC[C@H](O)C(C)(C)[C@@H]5CC[C@]43C)[C@@H]2C1 (single isomer, unassigned)
**A:** > 50 µM

---
**Q:** Give its EC50 value. Item: C[C@H]1[C@H](C)CC[C@]2(C(=O)O)CC[C@]3(C)C(=CC[C@@H]4[C@@]5(C)CC[C@H](O)C(C)(C)[C@@H]5CC[C@]43C)[C@H]12
**A:** > 50 µM

**Q:** Now give it for C=C(C)[C@@H]1CC[C@]2(C(=O)NO)CC[C@]3(C)C(CC[C@@H]4[C@@]5(C)CC/C(=N\O)C(C)(C)[C@@H]5CC[C@]43C)[C@@H]12 (stereo not given in full) too.
**A:** 6.8 µM

**Q:** What would you report for CC1(C)[C@@H](O)CC[C@]2(C)[C@H]3C(=O)C=C4[C@@H]5C[C@@](C)(C(=O)NO)CC[C@]5(C)CC[C@@]4(C)[C@]3(C)CC[C@@H]12 ?
**A:** > 50 µM

**Q:** Can you check C=C(C)[C@@H]1CC[C@]2(C(=O)O)CC[C@]3(C)[C@H](CC[C@@H]4[C@@]5(C)CC[C@H](O)C(C)(C)[C@@H]5CC[C@]43C)[C@@H]12 next?
**A:** > 50 µM

**Q:** Next molecule: C=C(C)[C@@H]1CC[C@]2(C)[C@H](CC=C3[C@@H]4CC(C)(C)CC[C@]4(C(=O)OC)CC[C@]32C)[C@@]1(C)CCC(=O)NO
**A:** 7.5 µM
